Tested on: colistin resistant MCR (−) E. Coli strains
Assay: Synergy study: colistin MIC in the presence of compound
Type: cell-based
Details: strain 6083672926, MCR(−); compound at 10 μg (Table 2a: 10 ug/ml)
Method: The MICs of the individual drugs and LC compound in combinations were determined using the broth microdilution technique as recommended by the CLSI whereby the two anti-microbial agents were added in an equal amount. (e.g.: 50 μL of Colistin: 50 μL of LC compounds). […] In all cases, the lowest concentration at which no visible growth occurred was be recorded to be the MIC value of individual and combined antibacterial agents. […]
Metric: Colistin MIC in the presence of the compound (µg/mL)
Your answer is read as µg/mL, so omit the unit and give the number.

| Compound | Experimental result |
| --- | --- |
| O=C(C=Cc1ccc(OCCCCN2CCNCCNCCNCC2)cc1)c1ccc(OCCCCN2CCNCCNCCNCC2)cc1O.[Cl][Zn][Cl].[Cl][Zn][Cl] | 12.5 |

Consider the record given below.
Colistin MIC in the presence of the compound in this record for COC(=O)C(CCCNC(=N)N)NC(=O)COc1ccc(C2COc3c(ccc4c3C=CC(C)(C)O4)C2)c(OCC(=O)NC(CCCNC(=N)N)C(=O)OC)c1 (stereo not shown) : 12.5

----------
Parameter: concentration at which the compound shows synergy with colistin. Scope: all listed entries.
test system: colistin resistant MCR (+) E. Coli strains; assay: Synergy study: colistin MIC in the presence of compound; format: cell-based; details: against mcr-1 bacteria
Your answer is read as µg/mL, so omit the unit and give the number.

concentration at which the compound shows synergy with colistin in this record for CC1(C)C=Cc2c(ccc3c2OCC(c2ccc(OCCCCN(Cc4ccccn4)Cc4ccccn4)cc2OCCCCN(Cc2ccccn2)Cc2ccccn2)C3)O1 (stereo not shown) [GLA-DPA] : 5

concentration at which the compound shows synergy with colistin in this record for CCN(CC)CCCCOc1ccc(/C=C/C(=O)c2ccc(OCCCCN(CC)CC)c(CC=C(C)C)c2O)cc1 [LC100] : 2

concentration at which the compound shows synergy with colistin in this record for Cc1cc(OCCCCN(Cc2ccccn2)Cc2ccccn2)cc(OCCCCN(Cc2ccccn2)Cc2ccccn2)c1 [Orc-DPA] : 50

----------
Parameter: MIC. Scope: all listed entries.
test system: colistin resistant MCR (+) E. Coli strains; test: MIC, broth microdilution, compound alone; format: cell-based; conditions: strain 7103531927, MCR (+); compound alone
Your answer is read as µg/mL, so omit the unit and give the number.

| Compound | Value units | MIC |
| --- | --- | --- |
| CC(C)=CCc1c(OCCNCCN)ccc(C(=O)/C=C/c2ccc(OCCNCCN)cc2)c1O [LC143] | µg/mL | 12.5 |
| CC(C)=CCc1c(OCCN(C)CCCN(C)C)ccc(C(=O)/C=C/c2ccc(OCCN(C)CCCN(C)C)cc2)c1O [LC140] | µg/mL | 25 |

Consider the record given below.
MIC in this record for CCOC(=O)C(CCCNC(=N)N)NC(=O)COc1ccc(/C=C/C(=O)c2ccc(OCC(=O)NC(CCCNC(=N)N)C(=O)OCC)c(CC=C(C)C)c2O)cc1 (stereo not drawn) [LC137] : 12.5

----------
system: colistin resistant MCR (−) E. Coli strains; experiment: MIC, broth microdilution, compound alone; type: cell-based; conditions: strain 7033607097, MCR (−)
Parameter: MIC. Scope: all listed entries.
Your answer is read as µg/mL, so omit the unit and give the number.

Solved cases (4 shown):
| Compound | Experimental result |
| --- | --- |
| CCN(CC)CCOc1ccc(/C=C/C(=O)c2ccc(OCCN(CC)CC)c(CC=C(C)C)c2O)cc1 | 50 |
| CC(C)=CCc1c(OCCCCC[N+](C)(C)C)ccc(C(=O)/C=C/c2ccc(OCCCCC[N+](C)(C)C)cc2)c1O | 6.25 |
| CC(C)=CCc1c(OCCNCCN)ccc(C(=O)/C=C/c2ccc(OCCNCCN)cc2)c1O | 6.25 |
| CN(C)CCCN(CCCCOc1ccc(C2COc3c(ccc4c3C=CC(C)(C)O4)C2)c(OCCCCN(CCCN(C)C)CCCN(C)C)c1)CCCN(C)C (stereo not shown) | 25 |

MIC in this record for `CC(C)=CCc1c(OCCCC[n+]2ccn(C)c2)ccc(C(=O)/C=C/c2ccc(OCCCC[n+]3ccn(C)c3)cc2)c1O` : 3.125

Data origin: patent US12473250B2
